- Assayed target: Acetylcholinesterase (Electrophorus electricus, UniProt O42275)
- Sequence (O42275 whole entry): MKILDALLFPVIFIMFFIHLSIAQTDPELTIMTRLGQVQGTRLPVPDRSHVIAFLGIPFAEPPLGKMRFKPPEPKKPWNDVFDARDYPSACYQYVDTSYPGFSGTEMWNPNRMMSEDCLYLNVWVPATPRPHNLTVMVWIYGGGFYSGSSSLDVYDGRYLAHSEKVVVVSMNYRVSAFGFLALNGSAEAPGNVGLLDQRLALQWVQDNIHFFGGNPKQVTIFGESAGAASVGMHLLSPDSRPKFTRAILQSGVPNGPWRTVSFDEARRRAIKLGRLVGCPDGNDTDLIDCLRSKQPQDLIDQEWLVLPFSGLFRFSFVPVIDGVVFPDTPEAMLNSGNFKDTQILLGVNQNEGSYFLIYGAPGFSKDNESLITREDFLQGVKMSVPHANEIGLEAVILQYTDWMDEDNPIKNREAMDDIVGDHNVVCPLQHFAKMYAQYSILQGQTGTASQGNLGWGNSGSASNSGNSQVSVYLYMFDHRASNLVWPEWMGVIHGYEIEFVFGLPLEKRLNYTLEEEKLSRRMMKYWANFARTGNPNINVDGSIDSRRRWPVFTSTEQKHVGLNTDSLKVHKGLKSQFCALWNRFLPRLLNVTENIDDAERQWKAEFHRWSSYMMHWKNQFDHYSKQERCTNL
// log10(IC50) lookup, one value per entry
Outcome measure: log10(IC50) (log10 of the value in nM)

Structure as smiles	log10(IC50)
O=C(/C=C/C=C/c1ccc(O)c(O)c1)NCCNc1c2c(nc3ccccc13)CCCC2	3.04
O=C(/C=C/C=C/c1ccccc1)NCCNc1c2c(nc3ccccc13)CCCC2	2.51
O=C(/C=C/C=C/c1ccccc1)NCCCNc1c2c(nc3ccccc13)CCCC2	2.46
O=C(/C=C/c1ccc2c(c1)OCO2)NCCNc1c2c(nc3ccccc13)CCCC2	2.26
O=C(/C=C/c1ccccc1)NCCNc1c2c(nc3ccccc13)CCCC2	2.89
COc1ccc(/C=C/C(=O)NCCCNc2c3c(nc4ccccc24)CCCC3)cc1OC	1.95
COc1ccc(/C=C/C(=O)NCCCCNc2c3c(nc4ccccc24)CCCC3)cc1OC	2.59
O=C(/C=C/c1ccc2c(c1)OCO2)NCCCNc1c2c(nc3ccccc13)CCCC2	2.11

###

- Assayed target: Amyloid-beta precursor protein (Homo sapiens)
- Experimental details: Inhibition of Amyloid beta (1 to 42) (unknown origin) self-induced aggregation at 80 uM for 24 hrs by Thioflavin T-based fluorometric assay
// inhibition lookup, one value per entry

Structure as smiles	Unit annotation	inhibition
O=C(/C=C/C=C/c1ccc2c(c1)OCO2)NCCCNc1c2c(nc3ccccc13)CCCC2	%	72.2
O=C(/C=C/c1ccc2c(c1)OCO2)NCCNc1c2c(nc3ccccc13)CCCC2	%	30.9
COc1ccc(/C=C/C(=O)NCCNc2c3c(nc4ccccc24)CCCC3)cc1OC	%	19.6
O=C(/C=C/c1ccc2c(c1)OCO2)NCCCNc1c2c(nc3ccccc13)CCCC2	%	8.27
COc1ccc(/C=C/C(=O)NCCCNc2c3c(nc4ccccc24)CCCC3)cc1OC	%	56.5

###

- Experimental details: Antioxidant activity assessed as DPPH radical scavenging activity after 30 mins
- Assay type: physicochemical
Outcome measure: EC50 (µM)

Structure as smiles	Observed result
O=C(/C=C/c1ccc(O)c(O)c1)NCCCNc1c2c(nc3ccccc13)CCCC2	11.3
O=C(/C=C/C=C/c1ccc(O)c(O)c1)NCCCNc1c2c(nc3ccccc13)CCCC2	9.1
O=C(/C=C/C=C/c1ccc(O)c(O)c1)NCCNc1c2c(nc3ccccc13)CCCC2	9.5
O=C(/C=C/c1ccc(O)c(O)c1)NCCNc1c2c(nc3ccccc13)CCCC2	12.3

###

- Assayed target: Acetylcholinesterase (Electrophorus electricus)
# TRUE = IC50 below 400 nM (exclusive); FALSE = IC50 at/above 400 nM

Structure as smiles	Category
COc1ccc(/C=C/C(=O)NCCNc2c3c(nc4ccccc24)CCCC3)cc1OC	TRUE
O=C(/C=C/c1ccccc1)NCCCNc1c2c(nc3ccccc13)CCCC2	TRUE
O=C(/C=C/c1ccc(O)c(O)c1)NCCNc1c2c(nc3ccccc13)CCCC2	FALSE
O=C(/C=C/c1ccc2c(c1)OCO2)NCCCCNc1c2c(nc3ccccc13)CCCC2	FALSE
O=C(/C=C/C=C/c1ccc2c(c1)OCO2)NCCNc1c2c(nc3ccccc13)CCCC2	TRUE
O=C(/C=C/C=C/c1ccccc1)NCCCCNc1c2c(nc3ccccc13)CCCC2	FALSE
O=C(/C=C/C=C/c1ccc2c(c1)OCO2)NCCCNc1c2c(nc3ccccc13)CCCC2	TRUE
O=C(/C=C/c1ccc(O)c(O)c1)NCCCNc1c2c(nc3ccccc13)CCCC2	FALSE
O=C(/C=C/C=C/c1ccc(O)c(O)c1)NCCCNc1c2c(nc3ccccc13)CCCC2	FALSE
O=C(/C=C/c1ccccc1)NCCCCNc1c2c(nc3ccccc13)CCCC2	FALSE

###

- Experimental details: Antioxidant activity assessed as DPPH radical scavenging activity at 1 mM after 30 mins
- Type: physicochemical
- Assay context: 0.5 h, 1000 µM
Activity vs 20%: at or above is Criterion met, below is Criterion not met.

Structure as smiles	Category
O=C(/C=C/c1ccc2c(c1)OCO2)NCCCCNc1c2c(nc3ccccc13)CCCC2	Criterion not met
O=C(/C=C/C=C/c1ccccc1)NCCNc1c2c(nc3ccccc13)CCCC2	Criterion not met
O=C(/C=C/c1ccccc1)NCCCCNc1c2c(nc3ccccc13)CCCC2	Criterion met
O=C(/C=C/C=C/c1ccc2c(c1)OCO2)NCCNc1c2c(nc3ccccc13)CCCC2	Criterion met
O=C(/C=C/c1ccccc1)NCCCNc1c2c(nc3ccccc13)CCCC2	Criterion not met
O=C(/C=C/C=C/c1ccccc1)NCCCNc1c2c(nc3ccccc13)CCCC2	Criterion not met
O=C(/C=C/c1ccc2c(c1)OCO2)NCCNc1c2c(nc3ccccc13)CCCC2	Criterion not met
O=C(/C=C/C=C/c1ccc2c(c1)OCO2)NCCCNc1c2c(nc3ccccc13)CCCC2	Criterion met
COc1ccc(/C=C/C(=O)NCCCNc2c3c(nc4ccccc24)CCCC3)cc1OC	Criterion not met
COc1ccc(/C=C/C(=O)NCCCCNc2c3c(nc4ccccc24)CCCC3)cc1OC	Criterion not met
O=C(/C=C/c1ccc2c(c1)OCO2)NCCCNc1c2c(nc3ccccc13)CCCC2	Criterion not met
O=C(/C=C/C=C/c1ccccc1)NCCCCNc1c2c(nc3ccccc13)CCCC2	Criterion met
COc1ccc(/C=C/C(=O)NCCNc2c3c(nc4ccccc24)CCCC3)cc1OC	Criterion not met
O=C(/C=C/c1ccccc1)NCCNc1c2c(nc3ccccc13)CCCC2	Criterion not met

###

- Tested on: SH-SY5Y
- Experimental details: Cytotoxicity against human SH-SY5Y cells assessed as cell viability at 1.5 to 5 uM after 25 hrs by MTT assay
- Format: cell-based

Structure as smiles	Activity
O=C(/C=C/C=C/c1ccccc1)NCCCNc1c2c(nc3ccccc13)CCCC2	Toxic
O=C(/C=C/C=C/c1ccc2c(c1)OCO2)NCCCNc1c2c(nc3ccccc13)CCCC2	Toxic
O=C(/C=C/c1ccccc1)NCCNc1c2c(nc3ccccc13)CCCC2	Toxic
O=C(/C=C/c1ccc2c(c1)OCO2)NCCCCNc1c2c(nc3ccccc13)CCCC2	Toxic
O=C(/C=C/c1ccc(O)c(O)c1)NCCCNc1c2c(nc3ccccc13)CCCC2	Toxic
O=C(/C=C/C=C/c1ccccc1)NCCNc1c2c(nc3ccccc13)CCCC2	Toxic
O=C(/C=C/C=C/c1ccc(O)c(O)c1)NCCNc1c2c(nc3ccccc13)CCCC2	Non-toxic
O=C(/C=C/c1ccccc1)NCCCNc1c2c(nc3ccccc13)CCCC2	Toxic
O=C(/C=C/c1ccc2c(c1)OCO2)NCCCNc1c2c(nc3ccccc13)CCCC2	Toxic
O=C(/C=C/C=C/c1ccc(O)c(O)c1)NCCCNc1c2c(nc3ccccc13)CCCC2	Non-toxic
O=C(/C=C/c1ccc2c(c1)OCO2)NCCNc1c2c(nc3ccccc13)CCCC2	Toxic
O=C(/C=C/C=C/c1ccc2c(c1)OCO2)NCCNc1c2c(nc3ccccc13)CCCC2	Toxic
O=C(/C=C/c1ccc(O)c(O)c1)NCCNc1c2c(nc3ccccc13)CCCC2	Toxic
